Would you kindly list GI50 for each of these compounds?
- Test system: HT29 colon
- ASSAY_PROCEDURE: NCI tumour cell line growth inhibition, 48 h

Would you kindly share the measured GI50 for Cc1cc(=O)[nH]c(N/N=C/c2cc(Br)ccc2O)n1 ? 13.3 µM

Request the reported GI50 associated with NC1=CC(=O)c2cccnc2C1=O 3.48 µM

So what's the measured GI50 for this one? O=C(c1ccco1)c1nc2cc(C(F)(F)F)ccc2nc1C(F)(F)F > 100 µM

Param item = COc1cc([C@@H]2c3cc4c(c(O)c3C[C@H]3COC(=O)[C@@H]32)OCO4)cc(OC)c1OC ; retrieve measured GI50. 1.18 µM

Param item = CCN(CC)CCNc1ccc(C)c2sc3cc(Cl)ccc3c(=O)c12 ; retrieve measured GI50. 1.94 µM
